Answer each item with its documented %Inh.
Test system: YSK1
Construct: gene STK25
Settings: concentration: 1 μM, replicates: in singlicate; n = 1;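 further: KINOMEscan kinase panel screen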
Give bare numbers, in %.

Here is how some compounds turned out for %Inh.
O=c1cc(N2CCOCC2)nc2n(Cc3cccc(Cl)c3)ccn12	10
CS(=O)(=O)CCNCc1ccc(-c2ccc3ncnc(Nc4ccc(OCc5ccccc5)c(Cl)c4)c3c2)o1.Cl	0
COC(=O)c1cccc(NC(=O)NCCNc2ccnc(Nc3ccc(F)cc3)n2)c1	14

Now turn to the next compound.
INPUT: Request body: readout %Inh, system YSK1, query Cl.Cn1ccc(-c2cccc(Nc3ccnc4cc(-c5nccs5)ccc34)c2)n1 . Return the value.
OUTPUT: 17

====

Test system: IRAK4
Details: concentration: 1 μM, replicates: in singlicate; n = 1
Parameter Measured: %Inh (%)
Give bare numbers, in %.

Here is how some compounds turned out for %Inh.
CNc1nccc(-c2c(-c3ccc(F)cc3)ncn2CCCN2CCOCC2)n1	9
Cn1ccc2ncnc(Oc3ccc(NC(=O)Nc4cccnc4)c(Cl)c3)c21	6
Cl.c1ccc(Cn2ccc3cc(Nc4ncnc5ccccc45)ccc32)cc1	0
Fc1ccc(Nc2nccc(-c3c(-c4ccc(Cl)cc4)nn4ncccc34)n2)cc1F	0
Fc1cccc(COc2ccc(Nc3ncnc4nn5ccccc5c34)cc2Cl)c1	0
Nc1nc(-c2cccnc2)c(-c2ccnc3ccccc23)s1	1
CSc1nn2c(=O)cc(N3CCOCC3)nc2n1Cc1cccc(Cl)c1Cl	0
O=C(NCCCN1CCCC1=O)c1cnc(NCc2cc(Cl)ccc2Cl)nc1NC1CCNCC1	2

INPUT: Request body: readout %Inh, system IRAK4, query Cl.Cl.c1ccc(-c2cc3ccncc3cc2OC2CCNCC2)cc1 . Return the value.
OUTPUT: 1

====

Answer each item with its documented %Inh.
System: PFTK1
Construct: gene CDK14
Conditions: concentration: 1 μM, replicates: in singlicate; n = 1
Numbers only, in %.

Record %Inh for all entries; do not skip any.
1. Nc1nccc2scc(-c3ccc4c(c3)CCN4C(=O)Cc3cc(F)ccc3F)c12
2. Fc1ccc(Nc2nccc(-c3c(-c4ccc(Cl)cc4)nn4ncccc34)n2)cc1F
3. CCCc1ccc(S(=O)(=O)NC2CCN(c3ccnc(Nc4ccc(OC)cc4)n3)C2)cc1 (centres unmarked)
4. CC(C)N1CCC(n2cnc(-c3ccc(F)cc3)c2-c2ccnc(N)n2)CC1
5. O=C(Nc1n[nH]c2nc(-c3ccco3)c(Br)cc12)c1ccc(CN2CCCC2)cc1.O=C(O)[C@H](O)[C@@H](O)C(=O)O
6. Cc1ccc(NC(=O)c2cccc(C#N)c2)cc1-c1ccc(C(=O)Nc2ccncc2)cc1
7. Fc1cccc(COc2ccc(Nc3ncnc4nn5ccccc5c34)cc2Cl)c1
8. FC(F)(F)c1ccc(-c2cc(-c3c[nH]nc3-c3ccccn3)ccn2)cc1

OUTPUT:
1: 15; 2: 10; 3: 0; 4: 2; 5: 0; 6: 27; 7: 0; 8: 19

Record %Inh for all entries; do not skip any.
1. CS(=O)(=O)CCNCc1ccc(-c2ccc3ncnc(Nc4ccc(OCc5ccccc5)c(Cl)c4)c3c2)o1.Cl
2. Nc1nc(-c2cccnc2)c(-c2ccnc3ccccc23)s1
3. CCc1nc(-c2cccc(N(C)S(=O)(=O)c3ccccc3)c2)c(-c2ccnc(Nc3ccc(N4CCN(C(C)=O)CC4)nc3)n2)s1
4. OCCOCCn1ccc2ncnc(Nc3ccc(Oc4cccc(Cl)c4)c(Cl)c3)c21
5. CSc1nn2c(=O)cc(N3CCOCC3)nc2n1Cc1cccc(Cl)c1Cl
6. Nc1nc(-c2ccccn2)c(-c2ccnc3ccccc23)s1
7. Nc1n[nH]c2nnc(-c3ccccc3)cc12

OUTPUT:
[0, 27, 20, 10, 20, 29, 24]

Record %Inh for all entries; do not skip any.
1. Cl.Fc1ccccc1COc1ccc(Nc2ncnc3ccc(-c4nnc(C(F)(F)F)o4)cc23)cc1Cl
2. Cl.O=S(=O)(c1cccc(F)c1)c1ccc(Nc2ncnc3cc(Br)sc23)cc1Cl
3. Fc1ccc(-c2ncn(CCCNCc3ccccc3)c2-c2ccncc2)cc1
4. Cl.c1ccc(Cn2ncc3cc(Nc4ncnc5ccccc45)ccc32)cc1
5. c1ccc(-c2ccc3c(-c4ccnc(Nc5ccc6c(c5)OCCO6)n4)cnn3n2)cc1

OUTPUT:
0
21
0
14
19

Record %Inh for all entries; do not skip any.
1. CSc1ccc(NC2=C(c3ccccc3Cl)C(=O)NC2=O)cc1
2. Cn1ccc2ncnc(Nc3ccc(Oc4cccc(Cl)c4)c(Cl)c3)c21
3. CCC(CC)(CC)n1cnc2c(N)ncnc21
4. Nc1nc(-c2ccc3c(N)n[nH]c3c2)cc(N2CCCCC2)n1
5. CS(=O)(=O)CCNCc1nc(-c2ccc3ncnc(Nc4ccc(OCc5cccc(F)c5)c(Cl)c4)c3c2)cs1.Cl
6. Cn1ccc2ncnc(Oc3ccc(NC(=O)Nc4cccnc4)c(Cl)c3)c21
7. CCn1c(-c2ccncc2)nc2cnccc21

OUTPUT:
1: 25; 2: 0; 3: 0; 4: 9; 5: 16; 6: 0; 7: 3

Record %Inh for all entries; do not skip any.
1. COc1ccc(NC(=O)c2ccc(-c3cc(-c4nnc(C)o4)ccc3C)cc2)cc1
2. CNc1nccc(-c2c(-c3ccc(F)cc3)ncn2C2CCN(C)CC2)n1
3. COc1cc2ncnc(Nc3ccc(OCc4ccccc4Br)c(Cl)c3)c2cc1OC.Cl
4. CN1c2ccc(-c3ccc(C(=O)NCCO)cc3)cc2-c2[nH]ncc2S1(=O)=O
5. Cc1ccc(O)cc1Nc1cc(C(F)(F)F)nc2ccc(-c3ccncc3)cc12
6. O=C(CCO)NCCn1ccc2ncnc(Nc3ccc(Oc4cccc(C(F)(F)F)c4)c(Cl)c3)c21
7. Cl.Cn1ccc(-c2cccc(Nc3ccnc4cc(-c5nccs5)ccc34)c2)n1
8. CC(C)(C)OC(=O)NC1CCCN(c2cc(-c3ccc4c(N)n[nH]c4c3)nc(N)n2)C1 (centres unmarked)

OUTPUT:
5
0
29
0
5
19
5
0

====

Answer each item with its documented %Inh.
System: WEE1
Details: concentration: 1 μM, replicates: in singlicate; n = 1
One number for each entry, in %.

Here is how some compounds turned out for %Inh.
c1ccc(-c2ccc3c(-c4ccnc(Nc5ccc6c(c5)OCCO6)n4)cnn3n2)cc1 [GW818941]	2
N#Cc1ccc(Oc2ccc(Nc3ncnc4cc[nH]c34)cc2Cl)cc1	28
COc1cc2c(Nc3cccc(NC(=O)c4ccccc4)c3)ncnc2cc1OCCCN1CCOCC1 [GSK223810]	0
O=C(Nc1ccccc1)Nc1ccc(Oc2ccc3nccn3n2)cc1	3

Record %Inh for all entries; do not skip any.
1. Clc1cccc(-c2nc(Nc3ccncc3)c3ccccc3n2)c1 [GW873004]
2. O=C(CCO)NCCn1ccc2ncnc(Nc3ccc(Oc4cccc(C(F)(F)F)c4)c(Cl)c3)c21
3. CN1CCC(n2cnc(-c3ccc(F)cc3)c2-c2ccnc(NC3CCNCC3)n2)CC1 [SB-229482]

OUTPUT:
1. 0
2. 1
3. 0

====

Test system: CDK3
Conditions: concentration: 1 μM, replicates: in singlicate; n = 1
Criterion: %Inh strictly less than 3%. Met: True. Not met: False.

Reference set, count: 5
FC(F)(F)c1cc(Nc2nccc(-c3c(-c4ccc(Cl)cc4)nn4ncccc34)n2)ccc1Cl [GW829351]	False
COc1ccc(NC(=O)Nc2ccc(C)c(-c3ccc(C(=O)Nc4ccncc4)cc3)c2)cc1 [GSK1398475]	True
Cl.Cn1ccc(-c2cccc(Nc3ccnc4cc(-c5nccs5)ccc34)c2)n1 [GW525701]	False
CNc1nccc(-c2c(-c3ccc(F)cc3)ncn2CCCN2CCOCC2)n1 [SB-222516]	True
COc1ccc(Nc2nccc(N3CCC(NC(=O)Nc4ccc5c(c4)OCO5)C3)n2)cc1 (stereo not drawn) [GSK1379745]	True

INPUT: Item Clc1ccc(-c2cc(-c3c[nH]nc3-c3ccccn3)ccn2)cc1 [GW681251] : %Inh beneath 3%, strictly?
OUTPUT: False

INPUT: Item CCn1c(-c2ccncc2)nc2cnccc21 [SB-735216] : %Inh beneath 3%, strictly?
OUTPUT: True

INPUT: Item Fc1ccc(Nc2nccc(-c3c(-c4ccc(Cl)cc4)nn4ncccc34)n2)cc1F [GW829058] : %Inh beneath 3%, strictly?
OUTPUT: False

====

Tested on: HIPK2
Conditions: concentration: 1 μM, replicates: in singlicate; n = 1
Parameter Measured: %Inh (%)
Give bare numbers, in %.

Here is how some compounds turned out for %Inh.
Fc1cccc(COc2ccc(Nc3ncnc4nn5ccccc5c34)cc2Cl)c1	0
Nc1nc(-c2ccc3c(N)n[nH]c3c2)cc(N2CCCCC2)n1	0
CN1c2ccc(-c3ccc(C(=O)NCCO)cc3)cc2-c2[nH]ncc2S1(=O)=O	52
C[C@@H]1CCN(C(=O)CO)C[C@@H]1N(C)c1ncnc2[nH]ccc12	0
O=C(c1ccc(-c2cc(-c3c[nH]nc3-c3ccccn3)ccn2)cc1)N1CCCC1	0
FC(F)(F)c1ccc(-c2nn3ncccc3c2-c2ccnc(Nc3cccc(C(F)(F)F)c3)n2)cc1	0

Record %Inh for all entries; do not skip any.
1. Nc1nccc2scc(-c3ccc4c(c3)CCN4C(=O)Cc3cc(F)ccc3F)c12
2. Cc1ccc(NC(=O)c2cccc(C#N)c2)cc1-c1ccc(C(=O)Nc2ccncc2)cc1
3. Nc1n[nH]c2nnc(-c3ccccc3)cc12
4. Cl.c1ccc(Cn2ncc3cc(Nc4ncnc5ccccc45)ccc32)cc1
5. Fc1cccc(COc2ccc(Nc3ncnc4sc(-c5ccc[nH]5)cc34)cc2Cl)c1
6. CN1CCC(n2cnc(-c3ccc(F)cc3)c2-c2ccnc(NC3CCNCC3)n2)CC1
7. CC(=O)Nc1n[nH]c2ncc(-c3ccccc3)cc12

OUTPUT:
0
0
55
0
0
45
48
